The origin of these recorded values is ChEMBL document CHEMBL4699546.

Item-by-item account of CLH
Experiment: Metabolic stability in human liver microsomes assessed as intrinsic clearance
Format: ADME, Microsome
Supply the numeric figure in mL/h/kg, leaving out any unit text.

As a guide, the following entries are already answered.
chemSmiles | resultUnits | CLH
Cc1ccc(N2CCN(C)CC2)c2c1CCN(C(=O)N1CCC(Oc3ccc(OC(F)(F)F)cc3)CC1)C2 | mL/h/kg | 2.88
CN1CCN(c2cccc3c2CN(Cc2ccc(-c4ccc(Cl)cc4)cn2)CC3)CC1 | mL/h/kg | 7.26
Cc1ccc(N2CCN(C)CC2)c2c1CCN(c1ccc(-c3ccc(C(C)(C)C)cc3)cn1)C2 | mL/h/kg | 2.46
Cc1cc(Cl)ccc1-c1ccc(CN2CCc3c(C)ccc(N4CCN(C)CC4)c3C2)nc1 | mL/h/kg | 5.52
COc1ccc(N2CCN(C)CC2)c2c1CCN(C(=O)Nc1ccc(-c3ccc(Cl)cc3Cl)cn1)C2 | mL/h/kg | 2.88
CCc1ccc(N2CCN(C)CC2)c2c1CCN(C(=O)Nc1ccc(-c3ccc(C(F)(F)F)cc3)cn1)C2 | mL/h/kg | 6.42

Exam item: Fill in the blank: the reported CLH of Cc1cc(Cl)ccc1-c1ccc(N2CCc3c(C)ccc(N4CCN(C)CC4)c3C2)nc1 is ____.
Marked response: 1.32

Exam item: Fill in the blank: the reported CLH of Cc1cc(Cl)ccc1-c1ccc(NC(=O)N2CCc3c(F)ccc(N4CCN(C)CC4)c3C2)nc1 is ____.
Marked response: 3

* * *

Experiment: Inhibition of human ATPsynthase
One threshold, 20 µg/mL, splits the recorded IC50 values: lower ones are true (1), equal or higher ones are false (0).

compound | qualitativeLabel
CN1CCN(c2cccc3c2CN(Cc2ccc(-c4ccc(Cl)cc4)cn2)CC3)CC1 | false (0)
Cc1cc(Cl)ccc1-c1ccc(N2CCc3c(C)ccc(N4CCN(C)CC4)c3C2)nc1 | false (0)
Cc1ccc(N2CCN(C)CC2)c2c1CCN(C(=O)Nc1ccc(-c3cc(C(F)(F)F)cc(C(F)(F)F)c3)cn1)C2 | true (1)
Cc1cc(Cl)ccc1-c1ccc(NC(=O)N2CCc3c(F)ccc(N4CCN(C)CC4)c3C2)nc1 | true (1)
CN1CCN(c2cccc3c2CN(C(=O)Nc2ccc(-c4ccc(OC(F)(F)F)cc4)cn2)CC3)CC1 | false (0)
CCc1ccc(N2CCN(C)CC2)c2c1CCN(C(=O)Nc1ccc(-c3ccc(C(F)(F)F)cc3)cn1)C2 | true (1)
COc1ccc(N2CCN(C)CC2)c2c1CCN(C(=O)Nc1ccc(-c3ccc(Cl)cc3Cl)cn1)C2 | false (0)
COc1nc2ccc(Br)cc2cc1[C@@H](c1ccccc1)[C@@](O)(CCN(C)C)c1cccc2ccccc12 [BEDAQUILINE] | false (0)

Proceed to the following item.
Exam item: Decide: IC50 of Cc1ccc(N2CCN(C)CC2)c2c1CCN(C(=O)N1CCC(Oc3ccccc3C(F)(F)F)CC1)C2 strictly below 20 µg/mL?
Marked response: false (0)
